Data provenance is paper PMC12028158.

So I've got a bunch of compounds here, and I need their activity at 10 µM values.
system: K-562; assay: NCI60 one-dose screen; assay type: cell-based; conditions: Homo sapiens, K562, read-out: Growth percent
Your answer should be a plain number; it is taken to be in %.

Query string: Which value of activity at 10 µM has been reported for `CC[C@]12C=CCN3CC[C@@]4(c5ccc(OC)cc5N(C)[C@H]4[C@@](O)(C(=O)OC)[C@@H]1OC(=O)CCC[P+](C1CCCCC1)(C1CCCCC1)C1CCCCC1)[C@@H]32` in the records?
Result string: 3.31

Query string: Which value of activity at 10 µM has been reported for CC[C@]12C=CCN3CC[C@@]4(c5ccc(OC)cc5N(C)[C@H]4[C@@](O)(C(=O)OC)[C@@H]1OC(=O)CCCC[P+](C1CCCCC1)(C1CCCCC1)C1CCCCC1)[C@@H]32 [10d] in the records?
Result string: 7.48

Query string: Which value of activity at 10 µM has been reported for CCC12C=CCN3CC[C@@]4(c5ccc(OC)cc5N(C)[C@H]4[C@@](O)(C(=O)OC)[C@@H]1OC(C)=O)[C@@H]32 (stereo partly drawn) in the records?
Result string: 103
